Data provenance: PubChem BioAssay (NCI)

# System: SK-OV-3 ovarian
# MEASUREMENT_PROTOCOL: NCI tumour cell line growth inhibition, 48 h
Item-by-item account of TGI
Give a bare numeral; the unit µM is implied.

Solved cases below.
Asked: Which measured TGI belongs to "CCOc1cccc(/C=N/NC(=O)c2cccc(Nc3ccnc(C(F)(F)F)c3)c2)c1O" , tested on SK-OV-3 ovarian?
Given back: 33.1

Asked: Next entry: "CNC(=O)OCc1c(COC(=O)NC)c(-c2ccc(-c3ccccc3)cc2)n(C)c1C"
Given back: 11.8

Asked: Continue with Cc1c(N2C(=O)C(Cl)C2/C=C/c2ccccc2)c(=O)n(-c2ccccc2)n1C (stereo not given)
Given back: 76.6

Asked: Moving on to Cc1cc(N(CC(C)Br)CC(C)Br)ccc1N=Nc1ccccc1C(=O)O (stereo not given)
Given back: 39.7

# context switch: different compound, same TGI
Asked: Kindly state the measured TGI obtained for "O=c1[nH]c2ccccc2cc1-c1nc2ccc(Cl)cc2[nH]1" with SK-OV-3 ovarian.
Given back: 8.01

* * *

# Tested on: SK-MEL-2 melanoma
# MEASUREMENT_PROTOCOL: NCI tumour cell line growth inhibition, 48 h
OBSERVATION_TYPE: TGI (µM)
Respond with the bare value in µM.

Asked: Quick check: TGI of "C=CC[C@]1(/C=N/O)CN(S(=O)(=O)CC[Si](C)(C)C)C[C@H]2CC=CC[C@H]21" ?
Given back: 32.6

Asked: C=C1C(=O)OC2/C=C(\C(=O)O)CC/C=C(\C)CC(OC(=O)/C=C(\C)CC)C12 (stereo not given) , same question.
Given back: 28.7

Asked: // next record CC(=O)OC1OC([C@H]2c3cccc(O)c3C(=O)c3c(O)cc(C)cc32)C(O)C(O)C1O (stereo not given in full)
Given back: 2.63

Asked: Can you check "COc1ccc2nc(N/N=C/c3sccc3C)cc(C)c2c1" next?
Given back: 63.1

Asked: Could you do the same for "Nc1n[nH]c2cccc(C#Cc3cccc(NC(=O)c4cccc(C(F)(F)F)c4)c3)c12" , please?
Given back: 6.95

* * *

# Tested on: SW-620 colon
# MEASUREMENT_PROTOCOL: NCI tumour cell line growth inhibition, 48 h
OBSERVATION_TYPE: TGI (µM)
Express the result in µM but write the number alone.

Example cases with answers are listed next.
Asked: Look at this compound and give its reported TGI. "O=C1/C(=C\c2ccc([N+](=O)[O-])cc2)N(S(=O)(=O)c2ccccc2)c2ncccc21"
Given back: 34.2

Asked: Continue with "COc1cc2c(cc1OCCCCCCCCCCN1C(=O)c3cccc4cccc(c34)C1=O)N=C[C@@H]1CCCN1C2=O"
Given back: 19

Asked: Do the same for "Cn1c(Cl)c(/C=C2/C(=O)Nc3ccccc32)c2ccccc21" please
Given back: 14.7

Let us examine a further case.
Asked: Give its TGI value. Item: "CC(=O)Oc1cc2c(cc1OC(C)=O)C1(C)CCC2(C)c2cc(OC(C)=O)c(OC(C)=O)cc21"
Given back: 63.4

* * *

# Tested on: RPMI-8226 leukemia
# MEASUREMENT_PROTOCOL: NCI tumour cell line growth inhibition, 48 h
OBSERVATION_TYPE: TGI

Asked: Fill in the blank: the reported TGI of "N[C@H](C(=O)O)[C@@H]1CC(Cl)=NO1" is ____.
Given back: 811 µM

Asked: Also, COc1ccc2c(c1)NC1=C(C(=O)OC1)C2c1cc(OC)c(OC)c(OC)c1 (stereo not given) please.
Given back: > 100 µM

Asked: # iterate: O=C1OC(CCCN2CCCCC2)(c2ccccc2)CC12CCCC2 (stereo not given)
Given back: > 100 µM

Asked: How about "Cc1ccc(S(=O)(=O)OC2CC=CC2)cc1" ?
Given back: > 100 µM

Further cases:
Asked: Need TGI, item "CN(/N=C/c1ccc(C(=O)O)cc1)C1=NCCCCN1"
Given back: > 100 µM

Asked: What about "C=CCCON(C(=O)OC(C)(C)C)c1ccccc1" ?
Given back: > 100 µM

Asked: Would you mind doing Cc1cn(C2CC(OC(=O)c3ccc(Cl)cc3)C(COC(=O)c3ccc(Cl)cc3)O2)c(=O)[nH]c1=O (stereo not given) as well?
Given back: > 100 µM

Asked: Ok, now "O=C(O)CSCCc1ccccc1"
Given back: > 100 µM

Asked: Also Cc1ccc(C2=C(c3ccc(C)cc3)C3(c4ccc(C)cc4)C4C(=O)OC(=O)C4C2(c2ccc(C)cc2)S3=O)cc1 (stereo not given) , if possible.
Given back: 89.5 µM

Asked: Here is the next compound: "N#C[S-].[La+3].c1cnc2c(c1)ccc1cccnc12.c1cnc2c(c1)ccc1cccnc12.c1cnc2c(c1)ccc1cccnc12"
Given back: > 100 µM

* * *

# Tested on: RXF 393 renal
# MEASUREMENT_PROTOCOL: NCI tumour cell line growth inhibition, 48 h
OBSERVATION_TYPE: TGI

Asked: Which TGI value is on record for "Cc1ccc(-n2[nH]nc(C(N)=O)c2=O)cc1" ?
Given back: > 100 µM

Asked: What do you get for "C/C(=N\NS(=O)(=O)c1ccc(C)cc1)c1ccccn1" ?
Given back: > 100 µM

Asked: Proceed to C=C1C(=O)OC2/C=C(\C(=O)O)CC/C=C(\C)CC(OC(=O)/C=C(\C)CC)C12 (stereo unspecified)
Given back: 27.5 µM

Asked: Query N#CSCC(Cl)=CCl (mixture of isomers) next
Given back: > 100 µM

Asked: Next compound: O=C(O)CCC1CCc2cccc(O)c2C1=O (stereo unspecified)
Given back: > 100 µM

Here is another compound to look at.
Asked: Given the compound "O=C(NC(=O)c1c(F)cccc1F)Nc1cccc(Oc2ncc(Cl)cn2)c1" , what is its reported TGI?
Given back: 79.5 µM

* * *

# Tested on: OVCAR-4 ovarian
# MEASUREMENT_PROTOCOL: NCI tumour cell line growth inhibition, 48 h
OBSERVATION_TYPE: TGI

Asked: Provide the documented TGI with OVCAR-4 ovarian as the system for "CCOC(=O)/C=C(\C(=O)OCC)n1cc(C)c(=O)n(Cc2cn(CCCCOC(C)=O)nn2)c1=O"
Given back: 53.1 µM

Asked: Try this compound too: "O=C(O)c1ccc(CN2CCC(CN[C@@H]3C[C@H]3c3ccccc3)CC2)cc1"
Given back: > 100 µM

Continuing:
Asked: Request - read-out TGI | tested on OVCAR-4 ovarian | compound "N/N=C\c1c2ccccc2c(=O)n2c1oc1ccccc12"
Given back: > 100 µM

Asked: Request: Cc1ccc(S(=O)(=O)N/N=C2\CCCCC23CCC(=O)NC3)cc1 (stereo unspecified)
Given back: > 100 µM

Asked: Would you kindly repeat that for NC1=NN(c2ccccc2)C(=O)C1C(=O)CCC(=O)Nc1cccc(Cl)c1 (stereo unspecified) ?
Given back: > 100 µM

Asked: Also "Cc1cn(-c2cc(NC(=O)c3cccc(C#Cc4cccc5[nH]nc(N)c45)c3)cc(C(F)(F)F)c2)cn1" ?
Given back: 21.2 µM

Asked: What do we get for CC1(C)C2CCC1(C)C(N/C(Sc1ccccc1)=C(/C(Cl)=C(Cl)Cl)[N+](=O)[O-])C2 (stereo unspecified) ?
Given back: 29.8 µM

Asked: Moving on to the next compound: "CC1(C)N/C(=C\[N+](=O)[O-])C(C)(C)N1O"
Given back: > 10 µM

Asked: Now the same for NC(CSC(c1ccccc1)(c1ccccc1)c1ccccc1)C(=O)NCC(=O)O (stereo unspecified)
Given back: 95.6 µM

Asked: Next entry: COc1cc(C2c3cc4c(cc3OC(C)(N3CCCC3)C2C)OCO4)cc(OC)c1OC (stereo unspecified)
Given back: > 100 µM

Asked: Let us now turn to CC1=C2C(O)C(C(C)C(=O)N(C)C)CCC2(C)C=CC1=O (stereo unspecified)
Given back: > 100 µM

Asked: Same lookup for "CSc1c(C(=O)Nc2ccccc2)c(N)n(N)c(=O)c1C#N" , please.
Given back: > 100 µM

Asked: Then this compound: Cc1ccc(C2(O)CSC(=NC34CC5CC(CC(C5)C3)C4)N2C(P(=O)(O)O)P(=O)(O)O)cc1 (stereo unspecified)
Given back: > 100 µM

Asked: Check "CCCCCCCCCCCCCP(=O)(O)O" too.
Given back: > 100 µM

Asked: Cool, now "COc1ccc2c(c1)C(=O)/C(=C/c1cccc(OCC(=O)c3ccccc3)c1)O2"
Given back: 6.37 µM

* * *

# Test system: UACC-62 melanoma
# MEASUREMENT_PROTOCOL: NCI tumour cell line growth inhibition, 48 h
// reported TGI per item
# number only, unit µM dropped from output

Would you please look over these solved cases?
Asked: Record lookup: for UACC-62 melanoma, what TGI belongs to "CCN1C(=O)c2ccc3c4c(ccc(c24)C1=O)C(=O)N(CCCNCc1ccccc1OC)C3=O" ?
Given back: 1.63

Asked: How about "CNC1(c2cc3ccccc3s2)CCCCC1" ?
Given back: 49

Asked: Query "Cc1cn(-c2cc(NC(=O)c3cccc(C#Cc4cccc5[nH]nc(N)c45)c3)cc(C(F)(F)F)c2)cn1" next
Given back: 12.7

Asked: Another compound: "CCOc1cccc(/C=N/NC(=O)c2cccc(Nc3ccnc(C(F)(F)F)c3)c2)c1O"
Given back: 11.7

Continuing:
Asked: Query TGI on UACC-62 melanoma for "CCCCCCCCn1ccc2cc(NC(=O)Cn3cc(CN4CCCCCC4)nn3)ccc21"
Given back: 3.45
